# TEST_TARGET: protein tyrosine phosphatase (PTPase) from Thermus thermophilus HB27 (Thermus thermophilus, UniProt Q72JF6)
# Construct: recombinant, expressed in E. coli BL21(DE3), purified to homogeneity; low molecular weight PTPase, CX5R(S/T) P-loop with Cys11; monomer in solution
# Sequence (Q72JF6 entry or part of it): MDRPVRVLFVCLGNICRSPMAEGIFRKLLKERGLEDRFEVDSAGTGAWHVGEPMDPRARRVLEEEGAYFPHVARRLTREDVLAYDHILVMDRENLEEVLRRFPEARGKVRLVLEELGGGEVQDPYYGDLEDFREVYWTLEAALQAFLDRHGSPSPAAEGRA
# TEST_PROTOCOL: phosphatase activity, absorbance at […] nm
Counter-ions that a name gives are not always drawn.
TEST_READOUT: pKi
Formally, pKi is defined as -log10 of the concentration c, with c in mol/L.

Provide measured pKi value, entry: N=C(N)N [guanidine hydrochloride]
3.57
